target or test system: Cannabinoid receptor 2 (Homo sapiens)
Sequence (P34972 whole entry): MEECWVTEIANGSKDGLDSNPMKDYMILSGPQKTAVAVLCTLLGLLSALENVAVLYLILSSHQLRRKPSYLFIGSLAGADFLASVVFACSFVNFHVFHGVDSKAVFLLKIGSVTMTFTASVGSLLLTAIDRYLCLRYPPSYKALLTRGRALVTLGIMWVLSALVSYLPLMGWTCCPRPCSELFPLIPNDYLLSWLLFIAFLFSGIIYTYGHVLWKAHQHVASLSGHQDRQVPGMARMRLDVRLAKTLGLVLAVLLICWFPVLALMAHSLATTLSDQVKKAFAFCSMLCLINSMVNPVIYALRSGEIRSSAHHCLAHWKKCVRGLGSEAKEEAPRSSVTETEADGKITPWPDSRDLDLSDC
protocol: Displacement of [3H]CP-55940 from human recombinant CB2 receptor expressed in HEK cells
pKi: −log10 of the molar value.
Please enter 1 where pKi is greater than or equal to 6, and -1 where it is lower.

Answered examples (3):
>  <compound>
O=C(NCCCc1ccccc1)C(c1ccccc1)c1ccc(Cl)cc1 (stereo unspecified)

>  <class label>
-1

$$$$
>  <compound>
O=C(NCCC(c1ccccc1)c1ccccc1)C(c1ccccc1)c1ccc(Br)cc1 (stereo unspecified)

>  <class label>
-1

$$$$
>  <compound>
CC(C(=O)NCCC(c1ccccc1)c1ccccc1)(c1ccccc1)c1ccccc1

>  <class label>
1

$$$$

Prompt: Decide: pKi of O=C(NCCC(c1ccccc1)c1ccccc1)C(O)(c1ccccc1)c1ccccc1 >= 6?
Completion: -1
